- System: HEK-293T
- protocol: Multiplex assay against HEK293T
- Type: toxicity, cell-based
- testContext: human, 48 h, 1 µM, compound concentration 1 uM, replicate 2
Use met when the recorded Population Mitotic Cells (%) is no lower than 80%; use not met when it is lower.

compound: CC(C)Oc1ccccc1C(=O)Nc1ccccc1C(=O)Nc1cccc(S(=O)(=O)C(F)(F)F)c1
category: not met
--
compound: CN1CCN(Cc2ccc(Nc3ncc(Cl)c(Nc4ccccc4S(=O)(=O)N(C)C)n3)cc2)CC1 [DUBERMATINIB]
category: not met
--
compound: Cc1ccccc1C(c1ccccc1C)N1C2CCC1CC(O)(c1ccccc1)C2 (configuration not stated)
category: met
--
compound: Cc1cccc(CN2CCN(C(c3ccccc3)c3ccc(Cl)cc3)CC2)c1.Cl.Cl (configuration not stated)
category: met
--
compound: Cc1c[nH]c2nccc(Oc3c(F)cc(Nc4cc(Cl)nc(N)n4)cc3F)c12 [BAY-549]
category: not met
--
compound: Cc1ccc2c(c1)c1c(n2CCc2ccc(C)nc2)CCN(C)C1 [LATREPIRDINE]
category: not met
--
compound: C[C@]12CC[C@@H]3c4ccc(O)cc4CC[C@H]3[C@@H]1CC[C@@H]2O [ESTRADIOL]
category: met
--
compound: Cl.O=C(O)c1cc(-c2ccc(C3CCNCC3)cc2)c2ccc(-c3ccc(C(F)(F)F)cc3)cc2c1
category: met
--
compound: COc1ccc(-c2ccc3ncc4c(c3c2)n(-c2ccc(N3CCNCC3)c(C(F)(F)F)c2)c(=O)n4C)cn1.O=C(O)/C=C\C(=O)O [BGT-226]
category: not met
--
compound: CCc1ccc(OCc2ccccc2C(=O)Nc2ccc3nc(C)cc(N)c3c2)cc1.Cl
category: not met
--
compound: CCCSc1nc(N[C@@H]2C[C@H]2c2ccc(F)c(F)c2)c2nnn([C@@H]3C[C@H](OCCO)[C@@H](O)[C@H]3O)c2n1 [TICAGRELOR]
category: met
--
compound: CC(C)c1noc(N2CCC(COc3ccc(-c4ccc(S(C)(=O)=O)cc4)nc3)CC2)n1 [GSK-1292263]
category: met
--
compound: COc1ccccc1CN[C@H]1C2CCN(CC2)[C@H]1C(c1ccccc1)c1ccccc1 [CP-96345]
category: met
--
compound: CC(C)OC(=O)N1CCC(Oc2ncnc3c2cnn3-c2ccc(S(C)(=O)=O)cc2F)CC1
category: met
--
compound: O=c1cc(N2CCOCC2)oc2c(-c3cccc4c3sc3ccccc34)cccc12
category: met

----------
Items are presented alongside their recorded Population Pyknosed Nuclei (%).
- Test system: U2OS
- protocol: Multiplex assay against U2OS
- Format: toxicity, cell-based
- testContext: human, 12 h, 10 µM, compound concentration 10 uM, replicate 2
reportedMetric: Population Pyknosed Nuclei (%)

structure: CC(C)c1noc(N2CCC(COc3ccc(-c4ccc(S(C)(=O)=O)cc4)nc3)CC2)n1
observedMeasurement: 10
//
structure: O=c1[nH]c2ccccc2n1C1CCN(Cc2ccc(-c3[nH]c4cc5ncnc5cc4nc3-c3ccccc3)cc2)CC1
observedMeasurement: 9
//
structure: CC(C)OC(=O)N1CCC(Oc2ncnc3c2cnn3-c2ccc(S(C)(=O)=O)cc2F)CC1
observedMeasurement: 16
//
structure: COC(=O)C1=C(C)NC(C)=C(C(=O)OCCCN2CCC(c3ccccc3)(c3ccccc3)CC2)[C@H]1c1cccc([N+](=O)[O-])c1
observedMeasurement: 29

----------
Quick reference for Total Cell Count among some molecules
- Tested on: U2OS
- protocol: Multiplex assay against U2OS
- Assay type: toxicity, cell-based
- testContext: human, 12 h, 10 µM, compound concentration 10 uM, replicate 2

molecule: COc1cc(Nc2nccc(-c3cnn4nc(OC)ccc34)n2)cc(C(F)(F)F)c1
Total Cell Count: 82

molecule: COc1ccc(-c2ccc3ncc4c(c3c2)n(-c2ccc(N3CCNCC3)c(C(F)(F)F)c2)c(=O)n4C)cn1.O=C(O)/C=C\C(=O)O [BGT-226]
Total Cell Count: 675

molecule: CN1CCN(Cc2ccc(Nc3ncc(Cl)c(Nc4ccccc4S(=O)(=O)N(C)C)n3)cc2)CC1 [DUBERMATINIB]
Total Cell Count: 91

molecule: CC(C)OC(=O)N1CCC(Oc2ncnc3c2cnn3-c2ccc(S(C)(=O)=O)cc2F)CC1
Total Cell Count: 72

molecule: CC(C)c1noc(N2CCC(COc3ccc(-c4ccc(S(C)(=O)=O)cc4)nc3)CC2)n1 [GSK-1292263]
Total Cell Count: 76

molecule: COC(=O)C1=C(C)NC(C)=C(C(=O)OCCCN2CCC(c3ccccc3)(c3ccccc3)CC2)[C@H]1c1cccc([N+](=O)[O-])c1 [NIGULDIPINE]
Total Cell Count: 87

molecule: CCc1nn(CCCN2CCN(c3cccc(Cl)c3)CC2)c(=O)n1CCOc1ccccc1.Cl [NEFAZODONE HYDROCHLORIDE]
Total Cell Count: 61

molecule: O=c1[nH]c2ccccc2n1C1CCN(Cc2ccc(-c3[nH]c4cc5ncnc5cc4nc3-c3ccccc3)cc2)CC1
Total Cell Count: 142

molecule: O=c1cc(N2CCOCC2)oc2c(-c3cccc4c3sc3ccccc34)cccc12
Total Cell Count: 70

molecule: CCCSc1nc(N[C@@H]2C[C@H]2c2ccc(F)c(F)c2)c2nnn([C@@H]3C[C@H](OCCO)[C@@H](O)[C@H]3O)c2n1 [TICAGRELOR]
Total Cell Count: 67

molecule: CC(C)Oc1ccccc1C(=O)Nc1ccccc1C(=O)Nc1cccc(S(=O)(=O)C(F)(F)F)c1
Total Cell Count: 53

molecule: CNC(=O)Nc1ccc(-c2nc(N3CC4CCC(C3)O4)c3cnn(C4CCC5(CC4)OCCO5)c3n2)cc1
Total Cell Count: 107

molecule: CCc1ccc(OCc2ccccc2C(=O)Nc2ccc3nc(C)cc(N)c3c2)cc1.Cl
Total Cell Count: 50

molecule: C=CC(=O)Nc1cccc(Sc2nc(Nc3ccc(N4CCN(C)CC4)cc3)ncc2Cl)c1
Total Cell Count: 115

molecule: C=CC(=O)Nc1cccc(Oc2nc(Nc3ccc(N4CCN(C)CC4)cc3OC)ncc2Cl)c1
Total Cell Count: 113

----------
- Tested on: Fibroblast
- protocol: Multiplex assay against human fibroblast
- Format: toxicity, cell-based
- testContext: 12 h, 1 µM, compound concentration 1 uM, replicate 2
reportedMetric: Population Apoptotic (%)

compound: COc1ccccc1CN[C@H]1C2CCN(CC2)[C@H]1C(c1ccccc1)c1ccccc1
assayTarget: Fibroblast
observedMeasurement: 66

compound: C[C@]12CC[C@@H]3c4ccc(O)cc4CC[C@H]3[C@@H]1CC[C@@H]2O
assayTarget: Fibroblast
observedMeasurement: 50

compound: CC(C)CC(=O)Nc1[nH]nc2c1CN(C(=O)C1CCN(C)CC1)C2(C)C
assayTarget: Fibroblast
observedMeasurement: 50

compound: Cl.O=C(O)c1cc(-c2ccc(C3CCNCC3)cc2)c2ccc(-c3ccc(C(F)(F)F)cc3)cc2c1
assayTarget: Fibroblast
observedMeasurement: 50

compound: CCCSc1nc(N[C@@H]2C[C@H]2c2ccc(F)c(F)c2)c2nnn([C@@H]3C[C@H](OCCO)[C@@H](O)[C@H]3O)c2n1
assayTarget: Fibroblast
observedMeasurement: 66

compound: CC(C)NC(=O)N1CC[C@H](NC2=Nc3cc(F)ccc3N(CC(F)F)c3ccc(Cl)cc32)C1
assayTarget: Fibroblast
observedMeasurement: 33

compound: C=CC(=O)Nc1cccc(Sc2nc(Nc3ccc(N4CCN(C)CC4)cc3)ncc2Cl)c1
assayTarget: Fibroblast
observedMeasurement: 69

compound: CNC(=O)Nc1ccc(-c2nc(N3CC4CCC(C3)O4)c3cnn(C4CCC5(CC4)OCCO5)c3n2)cc1
assayTarget: Fibroblast
observedMeasurement: 0

compound: Cc1ccccc1C(c1ccccc1C)N1C2CCC1CC(O)(c1ccccc1)C2 (stereo not drawn)
assayTarget: Fibroblast
observedMeasurement: 50

compound: CC(C)(C)NC[C@H](O)COc1nsnc1N1CCOCC1
assayTarget: Fibroblast
observedMeasurement: 100

compound: CCc1nn(CCCN2CCN(c3cccc(Cl)c3)CC2)c(=O)n1CCOc1ccccc1.Cl [NEFAZODONE HYDROCHLORIDE]
assayTarget: Fibroblast
observedMeasurement: 0

compound: CCc1ccc(OCc2ccccc2C(=O)Nc2ccc3nc(C)cc(N)c3c2)cc1.Cl
assayTarget: Fibroblast
observedMeasurement: 71

compound: CC(C)Oc1ccccc1C(=O)Nc1ccccc1C(=O)Nc1cccc(S(=O)(=O)C(F)(F)F)c1
assayTarget: Fibroblast
observedMeasurement: 33

compound: O=c1[nH]c2ccccc2n1C1CCN(Cc2ccc(-c3[nH]c4cc5ncnc5cc4nc3-c3ccccc3)cc2)CC1
assayTarget: Fibroblast
observedMeasurement: 83

compound: Cc1ccc(C)c(Oc2ccncc2C(=O)N2CCN(C3CC3)c3ccccc32)c1
assayTarget: Fibroblast
observedMeasurement: 66

compound: COc1cc(Nc2nccc(-c3cnn4nc(OC)ccc34)n2)cc(C(F)(F)F)c1
assayTarget: Fibroblast
observedMeasurement: 50

compound: Cc1nc(N2CC[C@H](O)C2)ncc1-c1cc(C(F)(F)F)cc2[nH]ncc12
assayTarget: Fibroblast
observedMeasurement: 20

compound: Cc1ccc2c(c1)c1c(n2CCc2ccc(C)nc2)CCN(C)C1 [LATREPIRDINE]
assayTarget: Fibroblast
observedMeasurement: 100
